Reference source for all entries: patent US20260116991A1

Target: T1, monkey GPC3-His protein (monkey)
T1 construct: Bought recombinant protein; also called monkey GPC3 protein
Assay: SPR, antibody captured on Protein A chip, monkey GPC3-His analyte;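 also: run at 25 °C with 240 s association and up to 600 s dissociation, double-referenced, kinetics fitted to a 1:1 Langmuir binding model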
Some binders, each annotated with its measured kon.
# number only, unit M⁻¹ s⁻¹ dropped from output

Illustrative cases are given below, each with its answer.
F1.41.17 (antibody, human IgG1, kappa, V domains shown, Human-murine chimeric antibody) VH: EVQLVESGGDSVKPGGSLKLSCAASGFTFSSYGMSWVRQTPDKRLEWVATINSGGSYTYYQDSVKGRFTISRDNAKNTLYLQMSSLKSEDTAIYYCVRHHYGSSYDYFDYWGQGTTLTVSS VL: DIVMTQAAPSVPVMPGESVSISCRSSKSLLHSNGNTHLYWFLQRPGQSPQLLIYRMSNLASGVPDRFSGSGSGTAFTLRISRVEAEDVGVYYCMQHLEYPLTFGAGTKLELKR | 482000
F1.62.9 (antibody, human IgG1, kappa, V domains shown, Human-murine chimeric antibody) VH: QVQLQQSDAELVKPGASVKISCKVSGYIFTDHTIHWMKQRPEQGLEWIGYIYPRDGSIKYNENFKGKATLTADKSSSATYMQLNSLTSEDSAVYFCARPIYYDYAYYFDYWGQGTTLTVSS VL: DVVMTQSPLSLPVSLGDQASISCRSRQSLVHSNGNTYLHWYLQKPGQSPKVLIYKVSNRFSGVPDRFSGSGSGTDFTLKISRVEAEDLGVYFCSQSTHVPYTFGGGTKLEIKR | 35500

kon reading for F1.111.11 (antibody, human IgG1, kappa, V domains shown, Human-murine chimeric antibody) VH: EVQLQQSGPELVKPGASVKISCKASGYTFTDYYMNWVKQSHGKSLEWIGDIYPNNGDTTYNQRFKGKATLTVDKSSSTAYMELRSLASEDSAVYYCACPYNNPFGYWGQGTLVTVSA VL: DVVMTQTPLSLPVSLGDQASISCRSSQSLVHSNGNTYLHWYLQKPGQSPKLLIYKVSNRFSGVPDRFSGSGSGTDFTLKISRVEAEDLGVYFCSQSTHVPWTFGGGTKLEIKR : 95800

For reference, reported kon for F1.120.16 (antibody, human IgG1, kappa, V domains shown, Human-murine chimeric antibody) VH: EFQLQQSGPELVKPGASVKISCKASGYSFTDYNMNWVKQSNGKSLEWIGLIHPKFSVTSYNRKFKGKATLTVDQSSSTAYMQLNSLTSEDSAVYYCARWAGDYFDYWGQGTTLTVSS VL: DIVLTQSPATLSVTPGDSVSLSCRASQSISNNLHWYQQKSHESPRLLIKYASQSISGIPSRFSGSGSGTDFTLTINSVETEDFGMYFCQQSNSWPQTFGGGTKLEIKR stands at 144000

Input F2.39.2 (antibody, human IgG1, kappa, V domains shown, Human-murine chimeric antibody) VH: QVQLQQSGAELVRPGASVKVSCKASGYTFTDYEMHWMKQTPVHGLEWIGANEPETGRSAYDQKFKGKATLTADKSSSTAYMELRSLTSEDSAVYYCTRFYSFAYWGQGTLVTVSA VL: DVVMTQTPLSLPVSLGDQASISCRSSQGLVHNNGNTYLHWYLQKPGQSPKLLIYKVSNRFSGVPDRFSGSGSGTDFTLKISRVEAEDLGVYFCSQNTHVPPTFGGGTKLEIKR . Output kon: 512000
